- experiment-notes: chemical genetic growth profiling, strain panel (AID 1159580);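 further: tested at 20 µM; growth read once vehicle control cultures reached saturation at 30 °C; 1 = growth at the plate median or of vehicle wells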
- test-parameters: S. cerevisiae deletion strains, growth OD, locus YDR069C, strain doa4, stronger effect = lower value
Among all 5,500 compounds or so, about 2,000 (36%) were called active. Inconclusive results (about 18%) are left out. The list shows a part of the results.
# normalized growth per entry
Answer with a number only.

INSERT INTO results (compound, experimental_value) VALUES
  ('O=c1oc2cc(O)ccc2s1', 0.998);

Quote normalized growth reported for CC(C)=CCCC1(C)C=Cc2c(O)c3c(c(CC=C(C)C)c2O1)OC12C(=CCCC1C(C)(C)O[C@@]2(C/C=C(\C)C(=O)O)C(=O)O)C3=O (stereo partly drawn) please.
0.923

Using the record for CC(C)CC(N(C)C)C1(c2ccc(Cl)cc2)CCC1 (stereo not drawn) , state its measured normalized growth.
1.03

Give the reported value of normalized growth for this record: CC(C)=CCCC1(C)C=Cc2c(O)c3c(c(CC=C(C)C)c2O1)OC12C(=CC4CC1C(C)(C)OC2(C/C=C(/C)C(=O)O)C4=O)C3=O (stereo not drawn)
0.821

Provide only the value of recorded normalized growth for COc1ccc2c(c1)c(CC(=O)O)c(C)n2C(=O)c1ccc(Cl)cc1
1.01

Please supply the value of reported normalized growth for the item COC(=O)C[C@H]1C(C)(C)C(=O)[C@@H]2CC3C4=CC(=O)O[C@@H](c5ccoc5)[C@]4(C)CCC3[C@@]1(C)C2=O (stereo partly drawn)
0.977

Quick one: give measured normalized growth for CC1(C)CC[C@]2(C)CC[C@]3(C)C(=CCC4[C@@]5(C)CC[C@H](O)C(C)(C)C5CC[C@]43C)C2C1 (stereo partly drawn)
0.978

Please indicate normalized growth recorded for CC1(C)CC[C@]2(C(=O)O)CC[C@]3(C)C(=CCC4[C@@]5(C)CC[C@@H](O)C(C)(C)C5CC[C@]43C)C2C1 (stereo partly drawn)
1.05

----------
- experiment-notes: chemical genetic growth profiling, strain panel (AID 1159580);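 further: tested at 20 µM; growth read once vehicle control cultures reached saturation at 30 °C; 1 = growth at the plate median or of vehicle wells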
- test-parameters: S. cerevisiae deletion strains, growth OD, locus YDL074C, strain BRE1, stronger effect = lower value
Among all 5,500 compounds or so, about 2,000 (36%) were called active. Not shown: some 18% with an inconclusive outcome. This is one part of the list.
Mark rule met only when normalized growth stays strictly below 1. Values equal to the cut-off are rule not met.

# count of solved cases: 4
INSERT INTO measurements (compound, category) VALUES
  ('CC(C)=CCCC1(C)C=Cc2c(O)c3c(c(CC=C(C)C)c2O1)OC12C(=CC4CC1C(C)(C)OC2(C/C=C(/C)C(=O)O)C4O)C3=O (centres undefined)', 'rule not met'),
  ('Nc1c2c(nc3ccccc13)CCCC2O (centres undefined)', 'rule not met'),
  ('CC(C)=CCCC1(C)C=Cc2c(O)c3c(c(CC=C(C)C)c2O1)OC12C(=CCCC1C(C)(C)O[C@@]2(C/C=C(\C)C(=O)O)C(=O)O)C3=O (some centres undefined)', 'rule met'),
  ('CC(C)=CCCC1(C)C=Cc2c(O)c3c(c(CC=C(C)C)c2O1)OC12C(=CC4CC1C(C)(C)OC2(C/C=C(\C)C(N)=O)C4=O)C3=O (centres undefined)', 'rule met');

Here's an entry: CC(C)=CCCC1(C)C=Cc2c(O)c3c(c(CC=C(C)C)c2O1)OC12C(=CC4CC1C(C)(C)OC2(C/C=C(/C)C(=O)O)C4=O)C3=O (centres undefined) . Is its normalized growth below 1?
rule met

Determine if O=c1[nH]cc(F)c(=O)[nH]1 shows normalized growth strictly lower than 1.
rule met

Just wondering, is normalized growth of CCOP(=S)(OCC)Oc1cc(C)nc(C(C)C)n1 below 1?
rule met

Could you please tell me whether normalized growth recorded for N[C@H](C(=O)O)[C@@H]1CC(Cl)=NO1 is less than 1?
rule met

Dear colleague, could you confirm whether normalized growth of CC1=CCC2C3(C)C1=CC(=O)OC3CC1C(C)(C)CC(O)C(O)C12C (centres undefined) falls below 1? Thanks.
rule not met

API: query returns whether the compound falls strictly under 1 in normalized growth. Query: Nc1c2ccccc2nc2ccccc12 (tested in a mixture with another compound)
rule met

Record CC1(C)CC[C@]2(C(=O)O)CC[C@]3(C)C(=CCC4[C@@]5(C)CC[C@@H](O)C(C)(C)C5CC[C@]43C)C2C1 (some centres undefined) : is its normalized growth strictly below 1?
rule not met
